System: OVCAR-5
assay-comment: NCI tumour cell line growth inhibition, 48 h
Structures can show the parent of a compound that is named as a salt. Active and inactive are the calls of the source. Cut-off read from the data, not from the text of the source: active = GI50 up to about 1.1 µM and inactive = higher. Residues, ends and D or L forms follow the SMILES beside them. *: point of attachment. Cbz = O=C(OCc1ccccc1)*; Boc = CC(C)(C)OC(=O)*; OSu = O=C1CCC(=O)N1O*; Bn = c1ccc(C*)cc1
Please go through the items and note down their GI50.

Entry under review: CN(C)CCNC(=O)c1cc([N+](=O)[O-])ccn1 . Reported GI50?
71.4 µM (inactive)

Entry under review: CCCCCCCC/C=C\CCCCCCCCNc1ccn(C2OC(COP(=O)(O)OC3CC(n4cc(F)c(=O)[nH]c4=O)OC3CO)C(O)C2O)c(=O)n1 (configuration not stated) . Reported GI50?
> 100 µM (inactive)

Entry under review: NCCNc1nc(N2CCCC2)c2nc(Cl)c(NCc3ccccc3)nc2n1 . Reported GI50?
2.44 µM (inactive)

Entry under review: COC(=O)C(Cc1nc2ccccc2nc1O)C(=O)C(=O)Nc1cc(C(F)(F)F)ccc1Cl (configuration not stated) . Reported GI50?
19.4 µM (inactive)

Entry under review: COC(=O)[C@H](Cc1c[nH]c2ccccc12)NC(=O)c1ccccc1I . Reported GI50?
> 100 µM (inactive)

Entry under review: Cc1nnc2sc(N/N=C/c3ccccc3)nn12 . Reported GI50?
> 100 µM (inactive)

Entry under review: Oc1ccc(O)c(CNc2ccc(C(O)C(F)(F)F)cc2)c1 (configuration not stated) . Reported GI50?
20.5 µM (inactive)

Entry under review: CC(NNC(=O)c1cc[n+]([BH2-]C#N)cc1)c1ccc(F)cc1 (configuration not stated) . Reported GI50?
> 100 µM (inactive)

Entry under review: COc1ccc(/N=C(/C[S+]([O-])c2ccc(C)cc2)C(F)(F)F)cc1 (configuration not stated) . Reported GI50?
> 100 µM (inactive)

Entry under review: CC1(C)CCc2c(cc3c(c2O)CCC(C)(C)O3)O1 . Reported GI50?
> 100 µM (inactive)

Entry under review: CC[N+]1(C)CCC(O)(/C=C/c2ccc(OC)cc2)C(C(=O)/C=C/c2ccc(OC)cc2)C1 (configuration not stated) . Reported GI50?
21.2 µM (inactive)

Entry under review: COC(=O)C1CSC(c2csc(CCN)n2)=N1 (configuration not stated) . Reported GI50?
> 100 µM (inactive)

Entry under review: COc1cc2c(cc1OC)-c1c(cc(OC)c(OC)c1OC)C2=O . Reported GI50?
> 100 µM (inactive)

Entry under review: CC(C)(C)OC(=O)NC(Cc1ccc(OCc2ccccc2)cc1)C(=O)NC(CCCCNC(=O)OCc1ccccc1)C(=O)NC(CCCCNC(=O)OCc1ccccc1)C(=O)ON1C(=O)CCC1=O (configuration not stated) (Boc-Tyr(Bn)-Lys(Cbz)-Lys(Cbz)-OSu; configuration not given here) . Reported GI50?
36.7 µM (inactive)

Entry under review: COc1ccc(/N=N/c2c(-c3c(OC)cc4occc4c3OC)[nH]c(=O)c(C#N)c2C)cc1 . Reported GI50?
> 100 µM (inactive)

Entry under review: Cc1cc2c(=O)cc(-c3ccc(C(=O)O)cc3)oc2c(C(N)=O)c1C . Reported GI50?
> 100 µM (inactive)

Entry under review: COc1cc(/C=C\c2ccncc2)cc(OC)c1OC . Reported GI50?
63.5 µM (inactive)

Entry under review: Clc1ccc(-c2cc3nc4ccccc4nc3o2)cc1 . Reported GI50?
> 100 µM (inactive)

Entry under review: CCc1ccc2c(c1)N(CC(C)CN(C)C)c1ccccc1S2 (configuration not stated) [ETYMEMAZINE HYDROCHLORIDE] . Reported GI50?
4.98 µM (inactive)

Entry under review: CCOC(=O)CCC(C(=O)OCC)n1nc2ccc(Nc3c(C)[n+]([O-])c4ccc(Cl)cc4[n+]3[O-])cc2n1 (configuration not stated) . Reported GI50?
30.9 µM (inactive)

Entry under review: CCO/S(=N/S(=O)(=O)c1ccccc1)c1ccccc1[N+](=O)[O-] (configuration not stated) . Reported GI50?
> 100 µM (inactive)

Entry under review: C=CCCCC1(C)CCNC1=S (configuration not stated) . Reported GI50?
> 100 µM (inactive)

Entry under review: COc1ccc(N(C(=O)NCCO)c2ccccc2)cc1 . Reported GI50?
> 100 µM (inactive)

Entry under review: CC(C)(C)C(=O)C(c1ccc(-c2cscn2)cc1)c1ccc(-c2cscn2)cc1 . Reported GI50?
> 100 µM (inactive)

Entry under review: C[C@@H](CC(O)C(O)C(C)(C)O)C1CCC23CC12CCC1[C@@]2(C)CCC(O)C(C)(C)C2CC(OC2OC(CO)C(O)C(O)C2O)[C@]13C (some centres not stated) . Reported GI50?
> 10 µM (inactive)

Entry under review: COc1ccc(/C=C2\N=C3N(Cc4ccccc4)C=C(N)N3C2=O)cc1 . Reported GI50?
82.8 µM (inactive)

Entry under review: Cn1nc(Cc2ccc(Cl)cc2)n(N)c1=O . Reported GI50?
> 100 µM (inactive)

Entry under review: COc1cc2c3c(c1O)C1(C=CC(=O)C=C1)CC3N(C)CC2 (configuration not stated) . Reported GI50?
19.3 µM (inactive)

Entry under review: N#CC(C#N)=C1NN=C(Cl)c2ccccc21 . Reported GI50?
> 100 µM (inactive)

Entry under review: CC(=O)Nc1ccc(C(=O)NN2C(=O)CSC2c2ccc([N+](=O)[O-])cc2)cc1 (configuration not stated) . Reported GI50?
> 100 µM (inactive)

Entry under review: O=C1CCCCC/C1=C\c1ccccc1 . Reported GI50?
> 100 µM (inactive)

Entry under review: Cc1ccc(O)c(C(c2cc(C)ccc2O)c2cc([N+](=O)[O-])ccc2O)c1 . Reported GI50?
14.3 µM (inactive)

Entry under review: CC(=O)Oc1ccc2ccc(=O)oc2c1OC(C)=O . Reported GI50?
> 100 µM (inactive)

Entry under review: C[n+]1c2ccccc2c(CNc2ccc(S(=O)(=O)N=C(N)N)cc2)c2ccccc21 . Reported GI50?
43.7 µM (inactive)

Entry under review: CC(=O)OCC12C(OC(C)=O)C[C@@H](C)C3(CC(c4ccoc4)OC3=O)C1CCC(OC(C)=O)C21CO1 (some centres not stated) . Reported GI50?
> 100 µM (inactive)

Entry under review: Cc1ccc(O)c(Cc2nc3ccccc3nc2-c2cccc(Cl)c2)c1 . Reported GI50?
> 100 µM (inactive)

Entry under review: N#CC1C(=O)Nc2sc(C(=O)c3ccc(Br)cc3)c(N)c2C12CCCCC2 (configuration not stated) . Reported GI50?
40.5 µM (inactive)

Entry under review: c1ccc2c(c1)c1c3n2-c2cc(on2)C3CCC1 (configuration not stated) . Reported GI50?
> 100 µM (inactive)

Entry under review: OC1CCC(C2C3CCCCC3C3CCCCC3C2C2CCC(O)CC2)CC1 (configuration not stated) . Reported GI50?
7.59 µM (inactive)

Entry under review: COc1ccccc1/N=N/c1c(O)c(S(=O)(=O)O)cc2cc(S(=O)(=O)O)ccc12 . Reported GI50?
> 100 µM (inactive)

Entry under review: COc1ccc(/C=[N+](\[O-])[C@H](COCc2ccccc2)c2ccccc2)cc1 . Reported GI50?
> 100 µM (inactive)

Entry under review: COc1ccc(C=O)cc1Oc1ccc(C[C@H]2c3c(cc(OC)c4c3Oc3cc5c(cc3O4)CCN(C)C5=O)CCN2C)cc1 . Reported GI50?
12.1 µM (inactive)
